Assay method text: Drug level in Wistar rat plasma at 1 mg/kg, po after 0.5 hr
Assay type: ADME, organism-based
Design: dose 1 mg/kg, route oral
Measurement setup: read-out: Drug uptake
Measurement name: concentration at 0.5 h (ng/mL)

INSERT INTO assay_data (sample_smiles, measurement_name, unit_info, measurement) VALUES
  ('CC[C@H](C)[C@@H](N)C(=O)N1C[C@@H](F)C[C@H]1C#N', 'concentration at 0.5 h', 'ng/mL', 195);

A. N#Cc1ccc(NCCNCC(=O)N2C[C@@H](F)C[C@H]2C#N)nc1.O=C(O)/C=C\C(=O)O
B. CC(C)(CO)NCC(=O)N1C[C@@H](F)C[C@H]1C#N
Query :: Looking only at measured concentration at 0.5 h, which entry is lower, A or B ? To answer, give the label that identifies your chosen option.
Result :: A
(A: 157 ng/mL, B: 355 ng/mL)
